Source of measurements: ChEMBL document CHEMBL4689842

# Test system: U2OS
# Assay Explanation: Multiplex assay against U2OS
# Assay type: toxicity, cell-based
# Assay Setup: human, 12 h, 10 µM, compound concentration 10 uM, replicate 2
Quick rule: Population Membrane Permeable-Phenotype (%) of at least 30% means MET, below that means NOT MET.

Check this compound for Population Membrane Permeable-Phenotype (%) at or above 30%: COc1ccc(-c2ccc3c(N4CCOCC4)nc(N4C[C@@H](C)O[C@@H](C)C4)nc3n2)cc1CO [Ku-0063794]
NOT MET

Could you tell me if the measured Population Membrane Permeable-Phenotype (%) of Cc1ccc(C(=O)Nc2cccc(C(F)(F)F)c2)cc1Nc1nc(-c2cccnc2)nc2c1cnn2C reaches 30% or more?
MET

Check if Population Membrane Permeable-Phenotype (%) >= 30% (inclusive). Item: O=C1NC(=O)C(c2cnc3ccccn23)=C1c1cn2c3c(cc(F)cc13)CN(C(=O)N1CCCCC1)CC2 [LY-2090314]
MET

Please tell me: is the compound CCc1cccc(CC)c1NC(=O)c1nn(C)c2c1CCc1cnc(Nc3ccc(C(=O)NC4CCN(C)CC4)cc3OC(F)(F)F)nc1-2 at or over 30% in terms of Population Membrane Permeable-Phenotype (%)?
NOT MET

Check this compound for Population Membrane Permeable-Phenotype (%) at or above 30%: COc1cc(N2CCN(C)CC2)ccc1Nc1ncc2c(n1)N(C)c1ccccc1C(=O)N2C
NOT MET

Reported Population Membrane Permeable-Phenotype (%) reaches at least 30% for CN1CCN(C(=O)C(C)(C)c2ccc(C(=O)Nc3cn4cc(-c5cc(C(C)(C)C)cc(C(C)(C)C)c5)ccc4n3)cc2)CC1 [T3-CLK-N] ?
MET

Does Population Membrane Permeable-Phenotype (%) meet or surpass 30% for O=C(Nc1ccc(-c2ccnc(Nc3ccc(N4CCOCC4)cc3)n2)cc1)[C@@H]1CCCN1 ?
NOT MET

Can C=CCn1c(=O)c2cnc(Nc3ccc(N4CCN(C)CC4)cc3)nc2n1-c1cccc(C(C)(C)O)n1 [ADAVOSERTIB] be said to have Population Membrane Permeable-Phenotype (%) at or above 30%?
MET

Is Population Membrane Permeable-Phenotype (%) at least 30%? Consider CCCn1c(=O)c2[nH]c(-c3cnn(Cc4cccc(C(F)(F)F)c4)c3)nc2n(CC)c1=O [GS 6201]
NOT MET

Does Population Membrane Permeable-Phenotype (%) meet or surpass 30% for CN(C)C(=O)C(CCN1CCC(O)(c2ccc(Cl)cc2)CC1)(c1ccccc1)c1ccccc1.Cl [LOPERAMIDE HYDROCHLORIDE] ?
MET

Exam item: decide whether the reported Population Membrane Permeable-Phenotype (%) for COc1ccc(S(=O)(=O)N(CCO)c2ccccc2CN(C)C/C=C/c2ccc(Cl)cc2)cc1.O=P(O)(O)O is at least 30%.
MET

Hi team, for O=C(Nc1cccnn1)N1CCC(=Cc2cccc(Oc3ccc(C(F)(F)F)cn3)c2)CC1 , is the recorded Population Membrane Permeable-Phenotype (%) at or above 30%?
NOT MET

Is Population Membrane Permeable-Phenotype (%) at least 30%? Consider COc1cccc2cc(-c3nc([C@H]4CC[C@H](C(=O)O)CC4)n4ncnc(N)c34)[nH]c12 [OSI-027]
NOT MET

----------
# Tested on: U2OS
# Assay Explanation: Multiplex assay against U2OS
# Assay type: toxicity, cell-based
# Assay Setup: human, 24 h, 1 µM, compound concentration 1 uM, replicate 1
Would you kindly list Population Mitochondria Different-Phenotype (%) for each of these compounds?
Express the result in % but write the number alone.

Give a short answer stating reported Population Mitochondria Different-Phenotype (%) for O=C1N/C(=N/c2ccccc2F)S/C1=C\c1ccc(C(=O)O)cc1 .
6

Return Population Mitochondria Different-Phenotype (%) for the following compound: O=C(Nc1ccc(-n2nc(-c3cccnc3)cc2C(F)(F)F)cn1)c1ccc(-c2ccccc2)c(F)c1 [BI 2049]
6

Provide one value: measured Population Mitochondria Different-Phenotype (%) of CCN1CCN(c2ccc(Nc3cc(N(C)C(=O)Nc4c(Cl)c(OC)cc(OC)c4Cl)ncn3)cc2)CC1 [INFIGRATINIB]
63

Give Population Mitochondria Different-Phenotype (%) for CN(C)C(=O)C(CCN1CCC(O)(c2ccc(Cl)cc2)CC1)(c1ccccc1)c1ccccc1.Cl [LOPERAMIDE HYDROCHLORIDE]
84

Kindly indicate its recorded Population Mitochondria Different-Phenotype (%). Item: O=C1NC(=O)C(c2cnc3ccccn23)=C1c1cn2c3c(cc(F)cc13)CN(C(=O)N1CCCCC1)CC2 [LY-2090314]
21
